Listed here: items and their measured relative viability.
Tested on: NCI-H1703
Experiment: relative viability (nuclei count vs DMSO), 5 days (fraction); higher = more cells survive
Details: first compound 0.5 µM

# compound, relative viability
rows = [
    ("Nc1ccn([C@@H]2O[C@H](CO)[C@@H](O)[C@@H]2O)c(=O)n1 [Cytarabine] + C[C@]1(O)C[C@@H](c2nc(-c3ccc4ccc(-c5ccccc5)nc4c3)c3c(N)nccn32)C1 [Linsitinib] (partner 1 µM)", 0.0904),
    ("Nc1ccn([C@@H]2O[C@H](CO)[C@@H](O)[C@@H]2O)c(=O)n1 [Cytarabine] + O=C(c1cc(Cc2n[nH]c(=O)c3ccccc23)ccc1F)N1CCN(C(=O)C2CC2)CC1 [Olaparib] (partner 8 µM)", 0.0977),
    ("Nc1ccn([C@@H]2O[C@H](CO)[C@@H](O)[C@@H]2O)c(=O)n1 [Cytarabine] + CC1(C)CCC(c2ccc(Cl)cc2)=C(CN2CCN(c3ccc(C(=O)NS(=O)(=O)c4ccc(N[C@H](CCN5CCOCC5)CSc5ccccc5)c(S(=O)(=O)C(F)(F)F)c4)cc3)CC2)C1 [Navitoclax] (partner 0.5 µM)", 0.105),
    ("COc1cc2nccc(Oc3ccc(NC(=O)Nc4cc(C)on4)c(Cl)c3)c2cc1OC [Tivozanib] + O=C(c1cc(Cc2n[nH]c(=O)c3ccccc23)ccc1F)N1CCN(C(=O)C2CC2)CC1 [Olaparib] (partner 8 µM)", 0.146),
]

---

System: RERF-LC-KJ
Assay: relative viability (nuclei count vs DMSO), 5 days (fraction); higher = more cells survive
Details: first compound 0.253 µM
Listed here: items and their measured relative viability.

# compound, relative viability
data = [
    ("Cc1cnc(-c2cnc(NCCNc3ccc(C#N)cn3)nc2-c2ccc(Cl)cc2Cl)[nH]1 + Cc1cc(Nc2cc(N3CCN(C)CC3)nc(Sc3ccc(NC(=O)C4CC4)cc3)n2)n[nH]1 [Tozasertib] (partner 0.1 µM)", 0.436),
    ("Cc1cnc(-c2cnc(NCCNc3ccc(C#N)cn3)nc2-c2ccc(Cl)cc2Cl)[nH]1 + CS(=O)(=O)N1CCN(Cc2cc3nc(-c4cccc5[nH]ncc45)nc(N4CCOCC4)c3s2)CC1 [Pictilisib] (partner 1 µM)", 0.496),
    ("Cc1cnc(-c2cnc(NCCNc3ccc(C#N)cn3)nc2-c2ccc(Cl)cc2Cl)[nH]1 + CS(=O)(=O)CCNCc1ccc(-c2ccc3ncnc(Nc4ccc(OCc5cccc(F)c5)c(Cl)c4)c3c2)o1 [Lapatinib] (partner 2 µM)", 0.777),
    ("O=c1[nH]c2ccccc2n1C1CCN(CCCC(c2ccc(F)cc2)c2ccc(F)cc2)CC1 [Pimozide] + CC(=O)Nc1cccc(-n2c(=O)n(C3CC3)c(=O)c3c(Nc4ccc(I)cc4F)n(C)c(=O)c(C)c32)c1 [Trametinib] (partner 0.02 µM)", 0.778),
]

---

Listed here: items and their measured relative viability.
Test system: NCI-H1755
Assay: relative viability (nuclei count vs DMSO), 5 days (fraction); higher = more cells survive
Settings: first compound 0.5 µM

# compound, relative viability
data = [
    ("COc1cc2nccc(Oc3ccc(NC(=O)Nc4cc(C)on4)c(Cl)c3)c2cc1OC [Tivozanib] + CC(C)C[C@H](NC(=O)[C@H](Cc1ccccc1)NC(=O)c1cnccn1)B(O)O [Bortezomib] (partner 0.002 µM)", 0.86),
    ("Nc1ccn([C@@H]2O[C@H](CO)[C@@H](O)[C@@H]2O)c(=O)n1 [Cytarabine] + CC(C)C[C@H](NC(=O)[C@H](Cc1ccccc1)NC(=O)c1cnccn1)B(O)O [Bortezomib] (partner 0.002 µM)", 0.294),
    ("COc1cc2nccc(Oc3ccc(NC(=O)Nc4cc(C)on4)c(Cl)c3)c2cc1OC [Tivozanib] + O=C(c1cc(Cc2n[nH]c(=O)c3ccccc23)ccc1F)N1CCN(C(=O)C2CC2)CC1 [Olaparib] (partner 8 µM)", 0.784),
    ("Nc1ccn([C@@H]2O[C@H](CO)[C@@H](O)[C@@H]2O)c(=O)n1 [Cytarabine] + COc1cccc2cc(-c3nc([C@H]4CC[C@H](C(=O)O)CC4)n4ncnc(N)c34)[nH]c12 [OSI-027] (partner 0.5 µM)", 0.309),
    ("Nc1ccn([C@@H]2O[C@H](CO)[C@@H](O)[C@@H]2O)c(=O)n1 [Cytarabine] + Nc1ncn([C@H]2C[C@H](O)[C@@H](CO)O2)c(=O)n1 [Decitabine] (partner 2 µM)", 0.424),
]

---

System: HCC-366
Test: relative viability (nuclei count vs DMSO), 5 days (fraction); higher = more cells survive
Conditions: first compound 0.05 µM
endpoint_label: relative viability

# molecule, endpoint_label, reported_result
rows = [
    ("COc1cc2nccc(Oc3ccc(NC(=O)Nc4cc(C)on4)c(Cl)c3)c2cc1OC [Tivozanib] + Cc1nc(NC(=O)N2CCC[C@H]2C(N)=O)sc1-c1ccnc(C(C)(C)C(F)(F)F)c1 [Alpelisib] (partner 2 µM)", "relative viability", 0.381),
    ("COc1cc2nccc(Oc3ccc(NC(=O)Nc4cc(C)on4)c(Cl)c3)c2cc1OC [Tivozanib] + O=C(c1cc(Cc2n[nH]c(=O)c3ccccc23)ccc1F)N1CCN(C(=O)C2CC2)CC1 [Olaparib] (partner 8 µM)", "relative viability", 0.37),
    ("COc1cc2nccc(Oc3ccc(NC(=O)Nc4cc(C)on4)c(Cl)c3)c2cc1OC [Tivozanib] + C[C@@H](Oc1cc(-c2cnn(C3CCNCC3)c2)cnc1N)c1c(Cl)ccc(F)c1Cl [Crizotinib] (partner 1 µM)", "relative viability", 0.502),
    ("Nc1ccn([C@@H]2O[C@H](CO)[C@@H](O)[C@@H]2O)c(=O)n1 [Cytarabine] + CS(=O)(=O)CCNCc1ccc(-c2ccc3ncnc(Nc4ccc(OCc5cccc(F)c5)c(Cl)c4)c3c2)o1 [Lapatinib] (partner 2 µM)", "relative viability", 1.05),
]

---

Tested on: NCI-H2009
Experiment: relative viability (nuclei count vs DMSO), 5 days (fraction); higher = more cells survive
Settings: first compound 5 µM

# compound, study_target, relative viability
rows = [
    ("O=C(O)CCCCC(CCSCc1ccccc1)SCc1ccccc1 (stereo unspecified) [CPI-613] + O=C(CCCCCCC(=O)Nc1ccccc1)NO [Vorinostat] (partner 1 µM)", "NCI-H2009", 0.726),
    ("O=C(O)CCCCC(CCSCc1ccccc1)SCc1ccccc1 (stereo unspecified) [CPI-613] + CS(=O)(=O)CCNCc1ccc(-c2ccc3ncnc(Nc4ccc(OCc5cccc(F)c5)c(Cl)c4)c3c2)o1 [Lapatinib] (partner 2 µM)", "NCI-H2009", 0.996),
    ("O=C(O)CCCCC(CCSCc1ccccc1)SCc1ccccc1 (stereo unspecified) [CPI-613] + COc1cc2c(Oc3ccc(NC(=O)C4(C(=O)Nc5ccc(F)cc5)CC4)cc3F)ccnc2cc1OCCCN1CCOCC1 [Foretinib] (partner 0.25 µM)", "NCI-H2009", 1.25),
    ("O=C(O)CCCCC(CCSCc1ccccc1)SCc1ccccc1 (stereo unspecified) [CPI-613] + O=C(c1cc(Cc2n[nH]c(=O)c3ccccc23)ccc1F)N1CCN(C(=O)C2CC2)CC1 [Olaparib] (partner 8 µM)", "NCI-H2009", 0.703),
    ("O=C(O)CCCCC(CCSCc1ccccc1)SCc1ccccc1 (stereo unspecified) [CPI-613] + CC(=O)c1c(C)c2cnc(Nc3ccc(N4CCNCC4)cn3)nc2n(C2CCCC2)c1=O [Palbociclib] (partner 0.5 µM)", "NCI-H2009", 0.229),
    ("O=C(O)CCCCC(CCSCc1ccccc1)SCc1ccccc1 (stereo unspecified) [CPI-613] + CC(=O)Nc1cccc(-n2c(=O)n(C3CC3)c(=O)c3c(Nc4ccc(I)cc4F)n(C)c(=O)c(C)c32)c1 [Trametinib] (partner 0.02 µM)", "NCI-H2009", 0.319),
]

---

Test system: NCI-H2405
Assay: relative viability (nuclei count vs DMSO), 5 days (fraction); higher = more cells survive
Conditions: first compound 0.08 µM
// classify: if (relative viability < 0.8) y else n

# molecule, study_target, group
data = [
    ("O=c1[nH]c2ccccc2n1C1CCN(CCCC(c2ccc(F)cc2)c2ccc(F)cc2)CC1 [Pimozide] + CC(=O)c1c(C)c2cnc(Nc3ccc(N4CCNCC4)cn3)nc2n(C2CCCC2)c1=O [Palbociclib] (partner 0.5 µM)", "NCI-H2405", "y"),
    ("O=c1[nH]c2ccccc2n1C1CCN(CCCC(c2ccc(F)cc2)c2ccc(F)cc2)CC1 [Pimozide] + Cc1cc(Nc2cc(N3CCN(C)CC3)nc(Sc3ccc(NC(=O)C4CC4)cc3)n2)n[nH]1 [Tozasertib] (partner 0.1 µM)", "NCI-H2405", "y"),
    ("Cc1cnc(-c2cnc(NCCNc3ccc(C#N)cn3)nc2-c2ccc(Cl)cc2Cl)[nH]1 + Cc1nc(Nc2ncc(C(=O)Nc3c(C)cccc3Cl)s2)cc(N2CCN(CCO)CC2)n1 [Dasatinib] (partner 0.075 µM)", "NCI-H2405", "y"),
    ("O=c1[nH]c2ccccc2n1C1CCN(CCCC(c2ccc(F)cc2)c2ccc(F)cc2)CC1 [Pimozide] + N=C(N)NC(=N)NCCc1ccccc1 [Phenformin] (partner 250 µM)", "NCI-H2405", "y"),
    ("O=c1[nH]c2ccccc2n1C1CCN(CCCC(c2ccc(F)cc2)c2ccc(F)cc2)CC1 [Pimozide] + Nc1nc2[nH]cc(CCc3ccc(C(=O)N[C@@H](CCC(=O)O)C(=O)O)cc3)c2c(=O)[nH]1 [Pemetrexed] (partner 0.2 µM)", "NCI-H2405", "n"),
    ("Cc1cnc(-c2cnc(NCCNc3ccc(C#N)cn3)nc2-c2ccc(Cl)cc2Cl)[nH]1 + C[C@]1(O)C[C@@H](c2nc(-c3ccc4ccc(-c5ccccc5)nc4c3)c3c(N)nccn32)C1 [Linsitinib] (partner 1 µM)", "NCI-H2405", "n"),
    ("Cc1cnc(-c2cnc(NCCNc3ccc(C#N)cn3)nc2-c2ccc(Cl)cc2Cl)[nH]1 + Cc1nc(NC(=O)N2CCC[C@H]2C(N)=O)sc1-c1ccnc(C(C)(C)C(F)(F)F)c1 [Alpelisib] (partner 2 µM)", "NCI-H2405", "n"),
    ("O=c1[nH]c2ccccc2n1C1CCN(CCCC(c2ccc(F)cc2)c2ccc(F)cc2)CC1 [Pimozide] + Cc1nc(Nc2ncc(C(=O)Nc3c(C)cccc3Cl)s2)cc(N2CCN(CCO)CC2)n1 [Dasatinib] (partner 0.075 µM)", "NCI-H2405", "y"),
    ("O=c1[nH]c2ccccc2n1C1CCN(CCCC(c2ccc(F)cc2)c2ccc(F)cc2)CC1 [Pimozide] + CS(=O)(=O)N1CCN(Cc2cc3nc(-c4cccc5[nH]ncc45)nc(N4CCOCC4)c3s2)CC1 [Pictilisib] (partner 1 µM)", "NCI-H2405", "y"),
    ("O=c1[nH]c2ccccc2n1C1CCN(CCCC(c2ccc(F)cc2)c2ccc(F)cc2)CC1 [Pimozide] + COc1cc2c(Oc3ccc(NC(=O)C4(C(=O)Nc5ccc(F)cc5)CC4)cc3F)ccnc2cc1OCCCN1CCOCC1 [Foretinib] (partner 0.25 µM)", "NCI-H2405", "n"),
    ("Cc1cnc(-c2cnc(NCCNc3ccc(C#N)cn3)nc2-c2ccc(Cl)cc2Cl)[nH]1 + N=C(N)NC(=N)NCCc1ccccc1 [Phenformin] (partner 250 µM)", "NCI-H2405", "y"),
]
